measurement description: NCI Yeast Anticancer Drug Screen. Data for the mec2-1 strain (AID 157)
test parameters: S. cerevisiae mec2-1 strain, at 50.0 µM, stronger effect = higher value
The panel holds about 79,000 compounds, 15% with a hit somewhere; the sample as a whole holds those more often.
Reported growth inhibition is given for each of the following compounds.
Just the number please, in %, no unit attached.

Consider the worked cases shown below.
>>> df
                                   compound     property_label  measurement_unit  numeric_value
0  CN1CC(=O)N2CCCCC2C(c2ccccc2)C1 (stereo not drawn)  growth inhibition                 %           2.85
1  CCN(CC)c1ccc(NCC(O)c2cc(Cl)ccc2OC)cc1 (stereo not drawn)  growth inhibition                 %          -5.75
2           COc1ccc(CCN=C2OCc3ccccc32)cc1OC  growth inhibition                 %          -49.6
3  Nc1ccc(C(=O)NN2C(=O)C(Cl)C2c2ccccc2)cc1 (stereo not drawn)  growth inhibition                 %          -31.8
4                       CCC/C(=N/O)C(=O)OCC  growth inhibition                 %           14.9

response.value for `CC(=O)CC1=CC(C(C)(C)C)=CC(=O)C1=O` (field: growth inhibition) = 26.1

response.value for `CCCCNC(=O)c1ccccc1N` (field: growth inhibition) = -6.15

response.value for Nc1ncnc2c1ncn2C1C=COC(CO)C1O (stereo not drawn) (field: growth inhibition) = 1.05

response.value for `O=C(OCc1ccccc1)C1(O)CCCCC1` (field: growth inhibition) = -16.2

response.value for O=C1CC2[C@@H](N3CCCC3)CCC(N1Cc1ccccc1)C2(O)O (stereo partly drawn) (field: growth inhibition) = -38

response.value for `Nc1cc(OCc2ccccc2)ncn1` (field: growth inhibition) = 11

response.value for `Cc1nc[nH]c1[N+](=O)[O-]` (field: growth inhibition) = -11

response.value for CCN(CC)CCCC(C)NC(=O)c1ccc2c(c1)C(=O)c1ccccc1C2=O (stereo not drawn) (field: growth inhibition) = 19.1

response.value for CCOP(=O)(OCC)C1C(C)N1C(=O)Nc1ccccc1 (stereo not drawn) (field: growth inhibition) = -4.15

response.value for `O=C(N/C(=C\c1ccc([N+](=O)[O-])cc1)c1nc2ccccc2[nH]1)c1ccccc1` (field: growth inhibition) = 6.55

response.value for CCc1cccc(C(C)C)c1NC(=O)C(=O)C1C(=O)Nc2ccccc2S1=O (stereo not drawn) (field: growth inhibition) = -13.6

response.value for `COc1ccc(NCC(=O)Nn2c(-c3ccccc3)nc3ccccc3c2=O)cc1` (field: growth inhibition) = -48.2

response.value for `COc1cc2nccnc2cc1OC` (field: growth inhibition) = 7.05

* * *

measurement description: NCI Yeast Anticancer Drug Screen. Data for the cln2 rad14 strain (AID 165);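 further: 0% = growth equal to vehicle treated cultures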
test parameters: S. cerevisiae cln2 rad14 strain, at 50.0 µM, stronger effect = higher value
Compounds without any hit were thinned out: in the full panel of roughly 79,000, 15% have a hit.
Answer Condition not met if growth inhibition is under 10%, and Condition met if it is 10% or more.

Sample answers from the record:
                                   compound     category_label
0                 CC(C)(C)C(=O)C[n+]1ccccc1  Condition not met
1  CC1C(c2ccccc2)=CCON1c1ccccc1 (configuration not stated)      Condition met
2  CCSCCC(C)(N)C(=O)O (configuration not stated)  Condition not met
3  COc1cc(C(=O)NOCc2cccc(C(F)(F)F)c2)cc(OC)c1OC  Condition not met
4  COC1OC(COC(=O)c2ccccc2)C(OC(=O)c2ccccc2)C1NC(C)=O (configuration not stated)      Condition met

Now for a further compound.
Given `CN(C)CCC(=O)Cc1ccccc1` , state whether its growth inhibition is at least 10%.
Condition not met
